Tested on: Nucleic Acid
Assay: Inhibitory activity against DNA polymerase III (DNA pol III) of Staphylococcus aureus at a concentration of 500 uM
Format: nucleic-acid assay
Consider the reported inhibition of an entry and match it to a band in interval 1: < 30%; interval 2: ≥ 30% and < 60%; interval 3: ≥ 60%

smilesStr: Oc1[nH]c(NCc2ccccc2)nc2nncc1-2
cat: interval 2
//
smilesStr: CCc1cc(Nc2nc(O)c3c[nH]nc3n2)ccc1C
cat: interval 3
//
smilesStr: Cc1ccc(Nc2nc(O)c3c[nH]nc3n2)cc1Br
cat: interval 3
//
smilesStr: Oc1[nH]c(NCc2ccc(F)c(Cl)c2)nc2nncc1-2
cat: interval 1
//
smilesStr: Cc1ccc(Nc2nc(O)c3c[nH]nc3n2)cc1C
cat: interval 2
//
smilesStr: Oc1[nH]c(NCc2ccc(Br)cc2)nc2nncc1-2
cat: interval 1
//
smilesStr: Cc1ccc(Nc2nc(O)c3c[nH]nc3n2)cc1I
cat: interval 3
//
smilesStr: Cc1ccc(Nc2nc(O)c3c[nH]nc3n2)cc1Cl
cat: interval 3
//
smilesStr: COc1ccc(CNc2nc(O)c3c[nH]nc3n2)cc1
cat: interval 1
//
smilesStr: Oc1[nH]c(NCc2ccc(Cl)c(Cl)c2)nc2nncc1-2
cat: interval 2
